# Test system: MDCK cell line
# EXPERIMENT DESCRIPTION: Cytotoxicity assay (Alamar blue), MDCK
# Type: cell-based
# ASSAY CONTEXT: read-out: cell lines EC50, MDCK
Item-by-item account of EC50
RESULT TYPE: EC50 (µg/mL)

>>> print(df.to_string())
                                   compound  result_type  unit_name  reported_result
0  CCOC(=O)C1=C(O)[C@@H]2[C@@H](c3ccc(F)cc3)O[C@@H](C(C)(C)C)N2C1=O (racemic) [10c]         EC50      µg/mL             62.5
1  CCOC(=O)C1=C(O)[C@@H]2[C@@H](c3ccc(Br)cc3)O[C@@H](C(C)(C)C)N2C1=O (racemic) [10e]         EC50      µg/mL             62.5
2  CCOC(=O)C1=C(O)[C@@H]2[C@@H](c3ccc(Cl)cc3)O[C@@H](C(C)(C)C)N2C1=O (racemic) [10d]         EC50      µg/mL             62.5
3  CC(C)(C)[C@@H]1O[C@H](c2ccccc2)[C@H]2C(O)=C(C(=O)NC34CC5CC(CC(C5)C3)C4)C(=O)N21 (mixture of isomers) [12a]         EC50      µg/mL              7.8
